# credit: PubChem BioAssay (NCI)

Each item that follows carries a reported TGI.
# System: HCT-116 colon
# methodDescription: NCI tumour cell line growth inhibition, 48 h

| compound | TGI |
| --- | --- |
| Cc1cnc(/N=c2\sc(C)cn2-c2ncc(C)s2)s1 | > 100 µM |
| Cn1c(=O)c(Oc2ccc(F)cc2F)cc2cnc(NC(CO)CO)nc21 | > 25 µM |
| Nc1ccc(C(=O)NN2C(=O)C(Cl)C2c2cc(Br)ccc2O)cc1 (stereo unspecified) | 32.5 µM |
| COc1c(OC)c(N)c2cc(C)c(=O)c(C)cc2c1N | > 100 µM |
| C=C1CCC2CC1[C@@H](C(=O)c1c[nH]c3ccccc13)NC2(C)C (stereo partly specified) | > 37.5 µM |
| CCN1CN(c2ccccc2)C2(CCN(CCCSc3ccc(F)cc3)CC2)C1=O | 14.9 µM |
| NNC(=O)CCC(=O)Nc1cc(Cl)c(Cl)cc1Cl | > 100 µM |
| COc1ccc(-c2cc(-c3ccc(Nc4ccnc5cc(Cl)ccc45)cc3)nc(N)c2C#N)cc1 | > 100 µM |
| CCOP(=O)(OCC)/C(C#N)=C/c1ccc(-c2ccc(F)cc2F)o1 | 32.3 µM |
| CC(O)(/C=C/c1ccccc1)P(=O)(O)c1ccccc1 (stereo unspecified) | > 100 µM |
| O=c1c2c(c1=O)C1(SCCCS1)c1cc(Cl)ccc1O2 | > 100 µM |
